The measured values listed here are drawn from patent US20240383958A1.

System: APJ-eGFP fusion protein
Sequence (P35414 whole entry, the tested form may be a part): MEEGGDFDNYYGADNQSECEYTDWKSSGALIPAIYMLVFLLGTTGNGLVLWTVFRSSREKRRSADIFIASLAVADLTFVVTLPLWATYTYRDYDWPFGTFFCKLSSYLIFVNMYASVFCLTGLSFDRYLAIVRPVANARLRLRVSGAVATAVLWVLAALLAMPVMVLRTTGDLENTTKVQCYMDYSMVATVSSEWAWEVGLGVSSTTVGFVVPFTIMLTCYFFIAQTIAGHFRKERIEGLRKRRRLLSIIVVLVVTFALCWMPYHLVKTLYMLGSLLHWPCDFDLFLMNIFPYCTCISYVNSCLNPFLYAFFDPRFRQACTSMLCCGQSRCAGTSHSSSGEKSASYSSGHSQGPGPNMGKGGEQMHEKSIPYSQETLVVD
protocol notes: Internalization assay, CHO-M1 cells expressing APJ-eGFP, high-content imaging
Assay type: cell-based
recorded conditions: lowest concentration at which maximum internalization was observed; 0.914 nM to 2000 nM
Measured Internalization Score of individual entries

Consider the following illustrative entries.
molecule="APL-B: Fc-linker fusion of apelin analogue QRPRLSHKGPMVF (P12V) (protein) MRAWIFFLLCLAGRALADKTHTSPPSPAPEAAGGPSVFLFPPKPKDTLMISRTPEVTCVVVDVSHEDPEVKFNWYVDGVEVHNAKTKPREEQYNSTYRVVSVLTVLHQDWLNGKEYKCKVSNKALPAPIEKTISKAKGQPREPQVYTLPPSREEMTKNQVNLTCLVKGFYPSDIAVEWESNGQPENNYKTTPPVLDSDGSFFLNSTLTVDKSRWQQGNVFSCSVMHEALHNHYTQKSLSLSPGKGGGGSGGGGSGGGGSQRPRLSHKGPMVF" quantity="Internalization Score" obs_value="2 (100-1000)"
molecule="ELA-K: Fc-linker fusion of elabela analogue KLRKHNCLIRRCMPLHSRVPFP (Q9I) (protein) MRAWIFFLLCLAGRALADKTHTSPPSPAPEAAGGPSVFLFPPKPKDTLMISRTPEVTCVVVDVSHEDPEVKFNWYVDGVEVHNAKTKPREEQYNSTYRVVSVLTVLHQDWLNGKEYKCKVSNKALPAPIEKTISKAKGQPREPQVYTLPPSREEMTKNQVNLTCLVKGFYPSDIAVEWESNGQPENNYKTTPPVLDSDGSFFLNSTLTVDKSRWQQGNVFSCSVMHEALHNHYTQKSLSLSPGKGGGGSGGGGSGGGGSKLRKHNCLIRRCMPLHSRVPFP" quantity="Internalization Score" obs_value="2 (100-1000)"
molecule="ELA-H: Fc-linker fusion of elabela analogue KLRKHNCLQRRCMPYHSRVPFP (L15Y) (protein) MRAWIFFLLCLAGRALADKTHTSPPSPAPEAAGGPSVFLFPPKPKDTLMISRTPEVTCVVVDVSHEDPEVKFNWYVDGVEVHNAKTKPREEQYNSTYRVVSVLTVLHQDWLNGKEYKCKVSNKALPAPIEKTISKAKGQPREPQVYTLPPSREEMTKNQVNLTCLVKGFYPSDIAVEWESNGQPENNYKTTPPVLDSDGSFFLNSTLTVDKSRWQQGNVFSCSVMHEALHNHYTQKSLSLSPGKGGGGSGGGGSGGGGSKLRKHNCLQRRCMPYHSRVPFP" quantity="Internalization Score" obs_value="2 (100-1000)"

Proceed to the following item.
Note down Internalization Score recorded for ELA-L: Fc-linker fusion of elabela analogue KLRKHNCATRRCMPLHSRVPFP (L8A, Q9T) (protein) MRAWIFFLLCLAGRALADKTHTSPPSPAPEAAGGPSVFLFPPKPKDTLMISRTPEVTCVVVDVSHEDPEVKFNWYVDGVEVHNAKTKPREEQYNSTYRVVSVLTVLHQDWLNGKEYKCKVSNKALPAPIEKTISKAKGQPREPQVYTLPPSREEMTKNQVNLTCLVKGFYPSDIAVEWESNGQPENNYKTTPPVLDSDGSFFLNSTLTVDKSRWQQGNVFSCSVMHEALHNHYTQKSLSLSPGKGGGGSGGGGSGGGGSKLRKHNCATRRCMPLHSRVPFP 2 (100-1000)
